Target: recombinant human GST-SYK (Homo sapiens)
Construct: purchased Carna Biosciences 08-176
Experiment: Homogeneous Time-Resolved Fluorescence (HTRF) assay for the recombinant human Syk enzyme
Assay type: biochemical
Settings: GST-hSYK 5 pM, ATP 25 μM, 10-dose titration 10 μM to 0.508 nM; read-out: rhSYK Activity (IC50 rating)
Entries and their IC50 values follow.

These solved cases illustrate the format of a correct answer.
In [3]: df
Out[3]:
                                   compound  experimental_result
0  Cc1nc(Nc2cc(N[C@@H]3CCCC[C@@H]3N)cnc2C(N)=O)ccc1-c1cccc(C(=O)O)c1 [Example 3.6]              < 10 nM
1  NC(=O)c1ncc(NCC2(N)CC2)cc1Nc1cccc(C(F)(F)F)n1 [Example 1.103]              < 10 nM
2  NC(=O)c1ncc(N[C@@H]2CCCC[C@@H]2N)cc1Nc1nc(Cl)ncc1F [Example 1.128]         10 to 100 nM

Kindly review the next compound as well.
Asked: What value of IC50 has been reported for the following compound? Cc1nc(Nc2cc(N[C@@H]3CCCC[C@@H]3N)cnc2C(N)=O)ccc1-n1nccn1 [Example 1.67]
Given back: < 10 nM

Recorded values, source patent US9216173B2.
